System: Candida albicans
Test: Antifungal activity against Candida albicans ATCC 7754 after 72 hrs by agar dilution method
Format: functional
Conditions: ATCC 7754, 72 h
# MIC per entry
Enter your answer as a number in µM; do not include the unit.

Please review the entries below; each comes with its answer.
COc1ccc(C2C(C#N)=C(N)Oc3cc(OCc4cn([C@@H]5O[C@H](COC(C)=O)[C@@H](OC(C)=O)[C@H](OC(C)=O)[C@H]5OC(C)=O)nn4)ccc32)cc1 (some centres undefined) | 1.56
Clc1ccc(COC(Cn2ccnc2)c2ccc(Cl)cc2Cl)c(Cl)c1 (centres undefined) | 3.12
CC(=O)OC[C@H]1O[C@@H](n2cc(COc3ccc4c(c3)OC(N)=C(C#N)C4c3ccc(Cl)cc3Cl)nn2)[C@H](OC(C)=O)[C@@H](OC(C)=O)[C@@H]1OC(C)=O (some centres undefined) | 100
COc1cccc(C2C(C#N)=C(N)Oc3cc(OCc4cn([C@@H]5O[C@H](COC(C)=O)[C@@H](OC(C)=O)[C@H](OC(C)=O)[C@H]5OC(C)=O)nn4)ccc32)c1 (some centres undefined) | 400
COc1ccccc1C1C(C#N)=C(N)Oc2cc(OCc3cn([C@@H]4O[C@H](COC(C)=O)[C@@H](OC(C)=O)[C@H](OC(C)=O)[C@H]4OC(C)=O)nn3)ccc21 (some centres undefined) | 200
CC(=O)OC[C@H]1O[C@@H](n2cc(COc3ccc4c(c3)OC(N)=C(C#N)C4c3ccc(C(C)C)cc3)nn2)[C@H](OC(C)=O)[C@@H](OC(C)=O)[C@@H]1OC(C)=O (some centres undefined) | 3.12
OC(Cn1cncn1)(Cn1cncn1)c1ccc(F)cc1F | 0.78
COc1cccc(C2C(C#N)=C(N)Oc3cc(OCc4cn([C@@H]5O[C@H](COC(C)=O)[C@@H](OC(C)=O)[C@H](OC(C)=O)[C@H]5OC(C)=O)nn4)ccc32)c1OC (some centres undefined) | 100
CC(=O)OC[C@H]1O[C@@H](n2cc(COc3ccc4c(c3)OC(N)=C(C#N)C4c3ccc(Cl)cc3)nn2)[C@H](OC(C)=O)[C@@H](OC(C)=O)[C@@H]1OC(C)=O (some centres undefined) | 6.25
CC(=O)OC[C@H]1O[C@@H](n2cc(COc3ccc4c(c3)OC(N)=C(C#N)C4c3cccc(Cl)c3)nn2)[C@H](OC(C)=O)[C@@H](OC(C)=O)[C@@H]1OC(C)=O (some centres undefined) | 12.5

Request - read-out MIC | tested on Candida albicans | molecule COc1cc(OC)cc(C2C(C#N)=C(N)Oc3cc(OCc4cn([C@@H]5O[C@H](COC(C)=O)[C@@H](OC(C)=O)[C@H](OC(C)=O)[C@H]5OC(C)=O)nn4)ccc32)c1 (some centres undefined)
25

Request - read-out MIC | tested on Candida albicans | molecule CC(=O)OC[C@H]1O[C@@H](n2cc(COc3ccc4c(c3)OC(N)=C(C#N)C4c3ccccc3)nn2)[C@H](OC(C)=O)[C@@H](OC(C)=O)[C@@H]1OC(C)=O (some centres undefined)
100

Request - read-out MIC | tested on Candida albicans | molecule CC(=O)OC[C@H]1O[C@@H](n2cc(COc3ccc4c(c3)OC(N)=C(C#N)C4c3ccc([N+](=O)[O-])cc3)nn2)[C@H](OC(C)=O)[C@@H](OC(C)=O)[C@@H]1OC(C)=O (some centres undefined)
25

Request - read-out MIC | tested on Candida albicans | molecule CC(=O)OC[C@H]1O[C@@H](n2cc(COc3ccc4c(c3)OC(N)=C(C#N)C4c3ccc(C)cc3)nn2)[C@H](OC(C)=O)[C@@H](OC(C)=O)[C@@H]1OC(C)=O (some centres undefined)
400
